- assay protocol: chemical genetic growth profiling, strain panel (AID 1159580);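 note: tested at 20 µM; growth read once vehicle control cultures reached saturation at 30 °C; 1 = growth at the plate median or of vehicle wells; lower values mean less growth of the strain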
- condition details: S. cerevisiae deletion strains, growth OD, locus YCL069W, strain vba3
Among all 5,500 compounds or so, about 2,000 (36%) were called active. About 18% were inconclusive and are not listed. Cut-off read from the data, not from the text of the source: active = normalized growth mostly below about 0.91 (no sharp cut-off); inconclusive = no clear call, values can overlap the other calls; inactive = mostly above about 0.92. Some of the results follow.
Outcomes: active, inactive

compound: O=c1cc(-c2ccccc2)oc2cc(O)c(O)c(O)c12
qualitative label: active

compound: N[C@H](Cc1ccccc1)C(=O)O
qualitative label: inactive

compound: C=Cc1c(C)c2[n-]c1=Cc1[n-]c(c(CC)c1C)C=c1[n-]c3c(c1C)C(=O)C(C(=O)[O-])C=3c1[n-]c(c(C)c1CCC(=O)[O-])C=2.[Cu] (centres undefined)
qualitative label: inactive

compound: CN[C@@H]1[C@H](OC2[C@H](O[C@H]3[C@H](O)[C@@H](O)[C@H](N=C(N)N)[C@@H](O)[C@@H]3N=C(N)N)O[C@@H](C)[C@]2(O)C=O)O[C@@H](CO)[C@H](O)[C@H]1O (some centres undefined)
qualitative label: inactive

====

- assay protocol: chemical genetic growth profiling, strain panel (AID 1159580);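 note: tested at 20 µM; growth read once vehicle control cultures reached saturation at 30 °C; 1 = growth at the plate median or of vehicle wells; lower values mean less growth of the strain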
- condition details: S. cerevisiae deletion strains, growth OD, strain wtn01, hits give low values
Hit rate of the full screen: of about 5,500 compounds, about 2,000 (36%) were called active. Another 18% or so got no clear call; they are omitted. This is one part of the list.
Exam item: assign label 1 to entries whose normalized growth is below 1 and label 0 to entries at or above 1. Note that a value of exactly 1 receives label 0.

compound: CCN(CCCc1ccccc1)CCCc1ccccc1
qualitative label: label 0
//
compound: NS(=O)(=O)c1cc2c(cc1Cl)NC(C1CC3C=CC1C3)NS2(=O)=O (configuration not stated)
qualitative label: label 1
//
compound: CCN(CC)CCOC(=O)C(c1ccccc1)c1ccccc1
qualitative label: label 1
//
compound: C[C@@H](N)[C@@H](O)c1ccccc1
qualitative label: label 0
//
compound: Nc1ccn(C2O[C@H](CO)[C@@H](O)[C@H]2O)c(=O)n1 (some centres not stated)
qualitative label: label 0

====

- assay protocol: chemical genetic growth profiling, strain panel (AID 1159580);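 note: tested at 20 µM; growth read once vehicle control cultures reached saturation at 30 °C; 1 = growth at the plate median or of vehicle wells; lower values mean less growth of the strain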
- condition details: S. cerevisiae deletion strains, growth OD, locus YLR384C, strain iki3, hits give low values
Among all 5,500 compounds or so, about 2,000 (36%) were called active. Not shown: some 18% with an inconclusive outcome. This is one part of the list.
Below, each entry is listed alongside its reported normalized growth.
value type: normalized growth

compound: NCC(CC(=O)O)c1ccc(Cl)cc1 (stereo unspecified)
test value: 1.01
//
compound: Cc1ncc([N+](=O)[O-])n1CC(C)O (stereo unspecified)
test value: 0.998
//
compound: CN(C)N=Nc1nc[nH]c1C(N)=O
test value: 0.985
//
compound: CCCCC[C@H](CC(=O)NO)C(=O)N[C@H](C(=O)N1CCC[C@H]1CO)C(C)C
test value: 1.02
//
compound: Cc1cc(C)cc(OCC2CNC(=O)O2)c1 (stereo unspecified)
test value: 0.973
//
compound: NCCOB(c1ccccc1)c1ccccc1
test value: 1.02
//
compound: O=c1[nH]cnc2[nH]ncc12
test value: 1
//
compound: COc1cc(OC)c(OC)cc1C=O
test value: 1.01
//
compound: COc1ccc(C(=O)N2CCCC2=O)cc1
test value: 0.958
//
compound: COc1cc(C)c(C(=O)Oc2cc(C)c(C(=O)O)c(O)c2C)c(OC)c1C
test value: 0.992
//
compound: COc1ccc(C(=O)CC(=O)c2ccc(C(C)(C)C)cc2)cc1
test value: 1.01
//
compound: O=C(O)CCCOc1ccc(Cl)cc1Cl
test value: 0.945
//
compound: C/C=C/C(=O)N(CC)c1ccccc1C
test value: 0.998
//
compound: CC(C)CCCC(C)C1CCC2C3CC[C@H]4CCCC[C@]4(C)C3CC[C@]12C (stereo partly specified)
test value: 1.02
//
compound: C[C@H](N)[C@H](O)c1cccc(O)c1
test value: 1.01
//
compound: NS(=O)(=O)c1cc2c(cc1Cl)NC(C1CC3C=CC1C3)NS2(=O)=O (stereo unspecified)
test value: 0.993
//
compound: NC(=O)c1ncn(C2O[C@H](CO)[C@@H](O)[C@H]2O)c1N (stereo partly specified)
test value: 1.04
//
compound: CCOC(=O)[C@H](CCc1ccccc1)N[C@@H](C)C(=O)N1Cc2ccccc2C[C@H]1C(=O)O
test value: 1.01
//
compound: CN(C)CCOC(=O)C(c1ccccc1)C1(O)CCCC1 (stereo unspecified)
test value: 0.985
//
compound: CSc1ccc2c(c1)N(CCC1CCCCN1C)c1ccccc1S2 (stereo unspecified)
test value: 0.984
//
compound: CCCCCC1C(=O)CCC1CC(=O)OC (stereo unspecified)
test value: 0.961
//
compound: C[C@H](CCC(=O)O)[C@H]1CCC2C3C(CC[C@@]21C)[C@@]1(C)CC[C@@H](O)C[C@H]1C[C@H]3O (stereo partly specified)
test value: 1.01
//
compound: C[C@@H](N)[C@@H](O)c1ccccc1
test value: 0.977
//
compound: CN(C)CCOC(=O)COc1ccc(Cl)cc1
test value: 0.983
//
compound: CCCC(CCC)C(=O)O
test value: 1.01
//
compound: N[C@H](Cc1cc(I)c(Oc2ccc(O)c(I)c2)c(I)c1)C(=O)O
test value: 0.993
